Ok so here's the combined literature set: IC50 for Mu-type opioid receptor (Homo sapiens, UniProt P35372).

In [3]: df
Out[3]:
                                smiles_code                              study_system   result
0  CC(=O)Nc1cc(Cl)ccc1/C=C/C(=O)N1CCN(Cc2ccc(F)cc2)C[C@H]1C  Mu-type opioid receptor (Homo sapiens, UniProt P35372)   > 1 µM
1  O=C(Nc1cccc(NC(=O)c2cccc(N3CCCCC3)c2)c1)c1cccc(OC2CCN(CC3CC3)CC2)c1  Mu-type opioid receptor (Homo sapiens, UniProt P35372)  > 30 µM
2  NCCCCN(C[C@H]1Cc2ncccc2CN1)[C@H]1CCCc2cccnc21  Mu-type opioid receptor (Homo sapiens, UniProt P35372)  > 30 µM
3  Cc1nc2cnccc2n1-c1ccc(OCc2cccc(/C=C/c3nc4cc(F)ccc4s3)c2)cc1  Mu-type opioid receptor (Homo sapiens, UniProt P35372)  > 10 µM

With those in mind, consider the next compound.
Fill blank: measured IC50 of the compound COc1ccc(N2CCN(CCCNC(=O)Cn3c(=O)c4cccn4c4ccccc43)CC2)cc1 is ____.
> 32 µM
